- experimental_target: Cytochrome P450 3A4 (Homo sapiens)
- experiment: Cytochrome panel assay with activity outcomes
- condition_context: recombinant CYP, pro-luciferin dealkylation, luminescence, p450-cyp3a4; series mostly up to 57.1 µM
- Method: The P450 gene superfamily is involved in the metabolism and clearance of xenobiotics. This assay used various human CYP P450 isozymes to measure the dealkylation of various pro-luciferin substrates to luciferin. The luciferin is then measured by luminescence after the addition of a luciferase detection reagent. […] Inhibitors and some substrates limit the production of luciferin, and decrease measured luminescence. […] 8, Detection, 1 sec, ViewLux luminescent read […]
About 5,100 (32%) of roughly 16,000 compounds were called active. Not shown: some 25% with an inconclusive outcome. Calls come from the whole dose curve; as a rule, active = well fitted curve in the direction sought with a large enough effect; inconclusive = small, poorly fitted or top-dose-only effect, or effect the other way; inactive = no such curve, though single readings can be large or run the other way. This is one part of the list.
Hi! Could you answer with just one of these? active, inactive

Use the examples below as a reference point.
- CCOC(=O)c1ccc(S(=O)(=O)N2CCN(C)CC2)cc1: inactive
- Cc1cc(=O)c2c(O)c(O)ccc2o1: inactive
- CN(C)CCCN1c2ccccc2Sc2cnccc21: active
- O=C(Cc1c[nH]c2ccccc12)OCC(=O)c1ccccc1: active
- Cn1c(=O)c2[nH]c(-c3ccccc3)nc2n(C)c1=O: inactive

Lookup: How did this test come out for `Cc1cc(-c2ccc(Cl)cc2)oc(=O)c1NC(=O)c1ccccc1` ?
Found: inactive

Lookup: Per the assay record, what outcome was assigned to `O=c1cc(-c2ccccc2)oc2cc(O)c(O)c(O)c12` ?
Found: active

Lookup: Fill in: this test's call for `COc1ccc(-c2cc(=O)c3c(O)cc(O)cc3o2)cc1` is ___
Found: active

Lookup: Hey, what did the test say about `COc1ccc(-c2coc3cc(OC)cc(O)c3c2=O)cc1` ?
Found: inactive

Lookup: // param item: `COc1ccc(-c2nc3c([nH]2)c(=O)n(C)c(=O)n3C)c(OC)c1` ; yields the recorded call
Found: active

Lookup: Would you mind telling me which call this test gave `Cc1cc2nnc(SCCCCN3C(=O)c4ccccc4C3=O)n2c2ccccc12` ?
Found: active

Lookup: // outcome(item) with item = `Cn1c(=O)c2[nH]c(-c3ccc(S(=O)(=O)O)cc3)nc2n(C)c1=O`
Found: inactive
